- System: UO-31 renal
- assay_method_text: NCI-60 one-dose screen, 48 h (100 = growth as untreated, 0 = no growth, -100 = all killed)
- experimental_conditions: 10 µM unless noted
Compounds without any hit were thinned out: in the full panel of roughly 83,000, 20% have a hit.
We'd kindly ask you to apply these growth classes: b0 (below 40%), b1 (40% to below 80%), b2 (80% or more)

These recorded examples may help you get a feel for the data.
[
  {
    "compound": "COc1ccc2nc(NNC(=O)c3cnccn3)c3cccn3c2c1",
    "category_label": "b0"
  },
  {
    "compound": "O=C1/C(=C\\c2c[nH]c3ccccc23)c2ccccc2N1c1c(Cl)cccc1Cl",
    "category_label": "b0"
  },
  {
    "compound": "c1c[nH]c(CNC2CCCCC2)c1",
    "category_label": "b2"
  },
  {
    "compound": "CC1(C)OC2C(CO[Si](C)(C)C(C)(C)C)OC(n3c(I)c(C#C[Si](C)(C)C)c(=O)[nH]c3=O)C2O1 (stereo not given)",
    "category_label": "b2"
  },
  {
    "compound": "COc1cccc(Nc2nccc(Nc3ccc4[nH]ncc4c3)n2)c1",
    "category_label": "b0"
  }
]

Class for COc1ccc(-c2nc(SCCC(C)C)nc(N/N=C\c3ccccc3O)c2C#N)cc1 ? b2

Which category does the recorded growth put O=c1c2cc(F)ccc2sc2c(NCCCN3CCCC3)nc3ccccc3c12 in? b0
